- METHOD SUMMARY: physchem
- EXPERIMENTAL PARAMETERS: buffer, pH 7.4
- Description: Aqueous solubility at pH 7.4
MEASUREMENT LABEL: solubility (µg/mL)
Provide the reading as a plain figure in µg/mL.

O=C(Cn1c(Cl)cnc(NCC(F)(F)c2ccccn2)c1=O)NCc1ncccc1F [DPOC-4088] : 11

Okay, now this molecule:
Briefly, solubility measured for `O=C(Cn1c(Cl)cnc(NCC(F)(F)c2cccc[n+]2[O-])c1=O)NCc1ncccc1F` : 44

###

- SYSTEM: Trypsin (Homo sapiens, UniProt P07477+P07478+P35030)
- Assay type: protein assay
- Description: Inhibition of human trypsin assessed as release of p-nitroanilide from chromogenic substrate
MEASUREMENT LABEL: Ki (µM)
Provide the reading as a plain figure in µM.

Cc1cnc(NCCc2ccccc2)c(=O)n1CC(=O)NCc1cc2cc[nH]c2cn1 : 95
Cc1cnc(NCCc2ccccn2)c(=O)n1CC(=O)NCc1cc2cc[nH]c2cn1 : 200
Cc1cnc(NCCc2ccccn2)c(=O)n1CC(=O)NCc1ccc2[nH]ccc2c1 : 290

Okay, now this compound:
Briefly, Ki measured for `Cc1nc(N)ccc1CNC(=O)Cn1c(C)ccc(NS(=O)(=O)Cc2ccccc2)c1=O` : 3.2
